# credit: PubChem BioAssay AID1996

# condition description: buffer; pH 7.4; 200.0 µM
Measured solubility kinetic accompanies every entry in the list below.

# compound, solubility kinetic
data = [
    ("Cc1ccsc1C(=O)OCC(=O)N1C(C)CCCC1C (stereo not drawn)", "> 44.3 µg/mL"),
    ("O=C1CSC(=S)N1c1ccc(Cl)c(Cl)c1", "< 0.6 µg/mL"),
    ("O=C(CN1C(=O)NC2(CCCCC2)C1=O)NCCc1ccc(Cl)cc1Cl", "> 59.7 µg/mL"),
]

---

# condition description: buffer; pH 7.4; 200.0 µM
parameter: log10 of solubility kinetic (log10 of the value in µg/mL)

# smiles record, log10 of solubility kinetic
measured = [
    ("Brc1ccccc1C1Nc2cccc3cccc(c23)N1", 0.45),
    ("Cn1cccc1C(=O)OCC(=O)c1ccc(Br)s1", 0.90),
    ("Cc1cc(C)c(CN2CCC(CO)(CCOc3ccccc3)CC2)cc1C", 1.59),
    ("CCc1ccc(NC(=S)N2CCCCCCC2)cc1", 1.55),
    ("O=C(Nc1ccncc1)Nc1ccc(Cl)cc1", 0.99),
    ("O=C1c2ccccc2CN1c1ccccc1", 1.09),
    ("N#CC(C#N)=CN=c1ccn(Cc2ccc(Cl)cc2Cl)cc1", 0.15),
    ("CC(C)N(Cc1ccc(F)cc1)C(=O)c1cc2ccccc2oc1=O", -0.10),
]

---

# condition description: buffer; pH 7.4; 200.0 µM
parameter: solubility kinetic

# compound, result
data = [
    ("Cc1cc(C(=O)NC2CCCC2)c2ccccc2n1", "> 38.1 µg/mL"),
    ("O=C(Nc1ccc(Cl)cc1)OC1CN2CCC1CC2 (stereo unspecified)", "40.5 µg/mL"),
    ("Cc1csc(NC(=O)c2ccc[nH]c2=O)n1", "> 35.3 µg/mL"),
    ("O=C(NCc1ccco1)C1CC(=O)N(c2cccc(Cl)c2)C1 (stereo unspecified)", "39.7 µg/mL"),
    ("O=S(=O)(NCC1CCCO1)c1ccccc1F (stereo unspecified)", "> 38.9 µg/mL"),
    ("Cc1c(C(=O)N2CCNCC2)oc2ccccc12.Cl", "40.9 µg/mL"),
]

---

List of solubility kinetic values.
# condition description: buffer; pH 7.4; 200.0 µM

# smiles record, modifier sign, solubility kinetic, µg/mL
measured = [
    ("O=S(=O)(Nc1ncccn1)c1cc(Cl)ccc1Cl", ">", 45.6),
    ("O=C(c1ccc(S(=O)(=O)Nc2ccccc2F)cc1)N1CCN(c2ccccn2)CC1", ">", 66.1),
    ("Cc1ccc2nc(COc3ccc(Cl)cc3)cc(=O)n2c1", "=", 0.5),
    ("Cc1ccc(C(=O)N2CCN(c3ccc([N+](=O)[O-])cc3)CC2)o1", "=", 40.2),
    ("CCN(CC)C(=O)COc1ccc2c(-c3ccccc3)cc(=O)oc2c1", "=", 40.7),
    ("Oc1cccc(/C=N/NC(=S)Nc2cccnc2)c1O", ">", 43.2),
    ("O=c1[nH]c2ccc(S(=O)(=O)Nc3ccccc3O)cc2[nH]1", ">", 45.8),
]

---

# condition description: buffer; pH 7.4; 200.0 µM

# molecule, modifier sign, solubility kinetic, µg/mL
rows = [
    ("Cc1cccc(C(=O)NCc2ccco2)c1", ">", 32.3),
    ("CCCCc1nnc(SCC(=O)Nc2nccs2)n1CC", ">", 48.8),
    ("Cc1cccc(-n2c(-c3ccc(Br)o3)n[nH]c2=S)c1", ">", 50.4),
    ("O=C(c1ccccc1)c1ccc(OCC(O)CN2CCCC2)cc1 (stereo not drawn)", ">", 48.8),
    ("COc1ccc(C)cc1NCc1ccc([N+](=O)[O-])cc1", "=", 3.1),
    ("Cc1cc(N/C=C(\\C#N)S(=O)(=O)c2ccccc2Cl)nc(C)n1", "=", 39.5),
    ("Cc1nnc(N)s1", ">", 17.3),
    ("O=C(Nc1cccc2ncccc12)c1ccc(OCc2ccccc2)cc1", "<", 0.4),
    ("CC1SC(c2ccc(F)cc2)N(CCc2ccccc2)C1=O (stereo not drawn)", "=", 21.8),
    ("CC(C)C1Cc2nc(Cl)c(C#N)cc2CO1 (stereo not drawn)", "=", 24.8),
    ("CC1(C)CC2CC(C)(CN2C(=O)c2cc(-c3ccccc3)on2)C1 (stereo not drawn)", "=", 3.3),
    ("COc1ccc(CN2CCOCCOCCOCCOCC2)cc1", ">", 50.9),
    ("COc1ccc(Nc2ncnc3sccc23)cc1OC", "=", 36.9),
    ("Cc1[nH]c(=O)[nH]c(=S)c1C(=O)Nc1ccc(Cl)c(Cl)c1", "=", 36.9),
    ("COCCn1c(N)c(C(=S)NC(=O)c2cccs2)c(=O)[nH]c1=O", "=", 34.6),
    ("Cc1[nH]c(=O)[nH]c(=O)c1S(=O)(=O)Nc1ccc(F)c(Cl)c1", ">", 50.1),
    ("CN(Cc1ccccc1)c1c([N+](=O)[O-])c(=O)n(C)c2ccccc12", "=", 2.7),
    ("Cc1ccc(S(=O)(=O)N(C)C)cc1NC(=O)c1sccc1Cl", "=", 2.4),
    ("COc1ccc(C(=O)CCC(=O)Nc2cccc(Cl)c2)cc1", "=", 3.4),
    ("CCCCN(C(=O)c1cccs1)c1c(N)n(Cc2ccccc2)c(=O)[nH]c1=O", "=", 6.1),
    ("COc1ccc(NC(=O)CN2C(=O)NC3(CCCc4ccccc43)C2=O)c(OC)c1 (stereo not drawn)", ">", 61.4),
    ("O=C(Nc1ccc2c(c1)CCC2)c1ccc(Cl)nc1", "=", 7.8),
    ("COc1cc(CN2CCC(Cc3ccccc3)CC2)c([N+](=O)[O-])cc1OC", "=", 33.5),
    ("O=C(O)c1ccc(-c2cccc([N+](=O)[O-])c2)o1", ">", 35),
    ("COC(=O)/C=C1\\N/C(=N\\c2nc(C)cc(C)n2)N(c2ccc(Cl)cc2)C1=O", "=", 57.6),
    ("O=C(O)CSc1ccc(S(=O)(=O)N2CCCC2)cn1", ">", 45.4),
    ("CN(Cc1ccc(F)cc1)Cc1nc(-c2ccccc2)no1", "=", 4.4),
    ("CC(=O)Nc1ccc(NC(=O)COC(=O)Cn2cnc3ccccc32)cc1", ">", 55),
    ("COc1ccc(CCNc2nc(C)cc(C)n2)cc1OC.Cl", ">", 48.6),
    ("Cc1noc(C)c1S(=O)(=O)NCc1cccc(Cl)c1", ">", 45.1),
    ("O=C(CN1C(=O)NC2(CCCCCC2)C1=O)Nc1ccccc1[N+](=O)[O-]", "=", 7.3),
    ("Cc1ccccc1C(=O)NCCNC(=O)c1ccccn1", "=", 39.3),
    ("CCOc1ccccc1/C=C(\\C#N)C1=CCCC1", ">", 35.9),
    ("CC(=O)N1CCOCCOCCN(C(C)=O)CCOCC1", ">", 45.4),
    ("CC(C)C1CC(C(=O)Nc2ccccc2)C(=O)O1 (stereo not drawn)", "=", 34.9),
    ("CCOC(=O)Cn1cnc2scc(-c3ccc(C)cc3)c2c1=O", "=", 38.2),
    ("C/C(=N/OC(=O)C1CC1)c1cc(-c2ccc(Cl)cc2)no1", "=", 0.4),
    ("CCOC(=O)N1CCN(S(=O)(=O)c2ccc(Cl)cc2)CC1", "=", 48.4),
    ("CCOc1ccc(NC(=O)C(=O)NCc2ccncc2)cc1", "=", 12.5),
    ("COc1ccc(CN(C)CC(=O)Nc2c(C)cccc2C)c(OC)c1", ">", 51.4),
    ("O=C(NCc1ccccc1)c1nccnc1CO", ">", 36.5),
    ("CC1=CC(C)(C)[N+](C)(C)c2ccccc21.[I-]", "=", 41),
    ("O=C(COc1ccccc1F)N1CCCc2ccccc21", ">", 42.8),
]
